z-score values for the compounds below.
Protocol Notes: PSAC antagonists in infected red cells, primary screen, cell-based, P. falciparum Indochina, OD700, 2 h (AID 1155);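 also: lysis reports solute entry through the parasite surface anion channel PSAC; channel blockers reduce lysis of infected cells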
Setup Conditions: P. falciparum Indochina infected erythrocytes, osmotic lysis OD700; higher = more signal, called active from +8 up or from −8 down
No unit in the answer, only the number.

Task item: Return reported z-score; argument: C=CC[C@]1(C(=O)NCC(O)CO)N=C(c2ccc(OCCCO)cc2)O[C@H]1c1ccccc1 (some centres undefined)
Reply: 0.741

Task item: Return reported z-score; argument: CCOC(=O)C1=CC[C@@H](c2ccccc2)N(S(=O)(=O)c2ccc(C)cc2)[C@H]1C
Reply: 1.03

Task item: Return reported z-score; argument: C[N+](C)(C)CCCCNC(=O)[C@H]1C[C@H]2C(=O)NCC(=O)N2[C@H]1c1cccc(OCCO)c1
Reply: -0.0646

Task item: Return reported z-score; argument: Cc1ccc(S[C@]2(C(=O)NCCN3CCOCC3)CC(=O)N(C3Cc4ccccc4C3)[C@@H]2c2ccc(CO)cc2I)cc1
Reply: -0.0443

----------
Protocol Notes: RPMI8226 myeloma cell viability, profiling panel, resazurin fluorescence, basal, 24 h, PK04 Diversity Set (AID 1180);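 also: RPMI8826 multiple myeloma cell line at 5000 cells per well; test concentration not given here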
Setup Conditions: higher = more signal
z-score values for the compounds below.
No unit in the answer, only the number.

C=C(CCCC)/C(=C/C[C@@H](OC(=O)c1ccncc1)c1ccc(CO)o1)c1cnc2ccccc2c1 ... 0.501
C=CCNC(=O)[C@H]1[C@@H]2C(=O)O[C@@H](c3ccccc3)[C@@H](c3ccccc3)N2[C@@H](c2ccccc2OCCO)[C@]12C(=O)N(C(=O)OCCOC)c1ccc(C#CCC(C(=O)OC)C(=O)OC)cc12 ... -0.54
COc1ccc(CCN2C(=O)[C@@]3(c4ccc([N+](=O)[O-])cc4)CC(=O)N(CC45CC6CC(CC(C6)C4)C5)[C@@H]3c3ccc(CO)cc32)cc1 ... 0.325
O=[N+]([O-])c1ccc(C[n+]2ccc3ccc(O)cc3c2)o1 ... 0.405

Task item: Return reported z-score; argument: COCCOC(=O)N1C(=O)[C@@]2(c3cc(C#CCC(C(=O)OC)C(=O)OC)ccc31)[C@H](c1ccccc1OCCO)N1[C@H](c3ccccc3)[C@H](c3ccccc3)OC(=O)[C@H]1[C@@H]2C(=O)N1CCCCCCC1
Reply: 1.58

Task item: Return reported z-score; argument: COC(=O)c1c(CC[C@@H](CO)NC(=O)N[C@H](Cn2cc(-c3cncn3C)nn2)C(C)C)oc(C(C)=O)c1C(=O)OC
Reply: -0.0832

Task item: Return reported z-score; argument: COC(=O)c1ccc(C#CC(NP(=O)(c2ccccc2)c2ccccc2)c2ccccc2)cc1 (stereo unspecified)
Reply: 1.26

Task item: Return reported z-score; argument: C=CCN1C(=O)[C@]2(O[C@H](CCn3cc(CCO)nn3)[C@@H]([Si](C)(C)c3ccc(OC)cc3)[C@@H]2C)c2cc(NC(=O)c3ccc(OC)cc3)ccc21
Reply: -4.33

Task item: Return reported z-score; argument: NC(=O)NCC#Cc1ccc2c(c1)[C@]1(C(=O)N2)[C@H](C(N)=O)[C@H]2C(=O)O[C@H](c3ccccc3)[C@H](c3ccccc3)N2[C@@H]1c1ccccc1OCCO
Reply: 0.295

Task item: Return reported z-score; argument: Cc1ccc(S(=O)(=O)c2cc3oc2CC[C@@H](CO)NC(=O)N(C)Cc2cn(nn2)C[C@H](Cc2ccccc2)NC3=O)cc1
Reply: 1.03

Task item: Return reported z-score; argument: COC(=O)[C@@]1(Cc2ccccc2)[C@H]2c3cc(C(=O)N4CCCC4)n(CCN4CNCC4=O)c3C[C@H]2CN1C(=O)c1ccccc1
Reply: 0.742

Task item: Return reported z-score; argument: CCCC=C(CCC)[C@@H](NS(=O)(=O)c1cccc(C(F)(F)F)c1)c1ccc(C(=O)OC)cc1
Reply: -0.16

Task item: Return reported z-score; argument: Cc1ccc(S[C@]2(C(=O)NC(C)C)CC(=O)N(C3Cc4ccccc4C3)[C@@H]2c2ccc(CO)cc2)cc1
Reply: 0.33

Task item: Return reported z-score; argument: Cc1ccc(S(=O)(=O)N[C@H]2COC(=O)CC=C[C@H](C)COC(=O)N[C@@H](C)C(=O)CC=C[C@@H]2C)cc1
Reply: 1.06

Task item: Return reported z-score; argument: CN(C)CCCC[C@@H]1NC(=O)[C@@H]2C[C@H](C(=O)O)[C@H](c3ccc(O)cc3)N2C1=O
Reply: 0.493
